- TARGET_OF_ASSAY: cIAP2-BIR3 (Homo sapiens (Human), UniProt Q13489)
- Sequence (Q13489 238-349): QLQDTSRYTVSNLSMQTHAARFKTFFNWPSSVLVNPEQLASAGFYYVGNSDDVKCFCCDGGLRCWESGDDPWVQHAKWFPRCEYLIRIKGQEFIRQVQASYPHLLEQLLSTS
- PROTOCOL_DESCRIPTION: BIR binding assay (FRET competition), cIAP2 BIR3
- STUDY_CONDITIONS: fold separation (FS) for cIAP2
MEASURED_ATTRIBUTE: cIAP2 BIR3 vs BIR2 separation window

Field: example entries. Status: answers known.
SMILES_TEXT	RESULT_VALUE
Cc1c(OC[C@@H]2CN(C[C@H]3CN[C@H](C)CN3CC(=O)N3CC(C)(C)c4[nH]c(=O)c(Cc5ccc(F)cc5)cc43)CCO2)cccc1OC[C@@H]1CN(C[C@H]2CN[C@H](C)CN2CC(=O)N2CC(C)(C)c3[nH]c(=O)c(Cc4ccc(F)cc4)cc32)CCO1	+++ (10,000>FS>1,000)
C[C@@H]1CN(CC(=O)N2CC(C)(C)c3[nH]c(=O)c(Cc4ccccc4)cc32)[C@@H](CN2CCO[C@H](C(=O)NCc3ccc(CNC(=O)[C@@H]4CN(C[C@H]5CN[C@H](C)CN5CC(=O)N5CC(C)(C)c6[nH]c(=O)c(Cc7ccccc7)cc65)CCO4)cc3)C2)CN1	+++ (10,000>FS>1,000)
C[C@@H]1CN(CC(=O)N2CC(C)(C)c3[nH]c(=O)c(Cc4ccc(F)cc4)cc32)[C@@H](CN2CCO[C@H](COCc3cccc(COC[C@@H]4CN(C[C@H]5CN[C@H](C)CN5CC(=O)N5CC(C)(C)c6[nH]c(=O)c(Cc7ccc(F)cc7)cc65)CCO4)c3)C2)CN1	+++ (10,000>FS>1,000)
C[C@@H]1CN(CC(=O)N2CC(C)(C)c3[nH]c(=O)c(Cc4ccc(F)cc4)cc32)[C@@H](CN2CCN(C(=O)COc3cccc(OCC(=O)N4CCN(C[C@H]5CN[C@H](C)CN5CC(=O)N5CC(C)(C)c6[nH]c(=O)c(Cc7ccc(F)cc7)cc65)[C@H](C)C4)c3)C[C@H]2C)CN1	++ (1,000>FS>100)
C[C@@H]1CN(CC(=O)N2CC(C)(C)c3[nH]c(=O)c(Cc4ccc(F)cc4)cc32)[C@@H](CN2CCO[C@H](C(=O)NCCOCCNC(=O)[C@@H]3CN(C[C@H]4CN[C@H](C)CN4CC(=O)N4CC(C)(C)c5[nH]c(=O)c(Cc6ccc(F)cc6)cc54)CCO3)C2)CN1	+++ (10,000>FS>1,000)

May I ask what cIAP2 BIR3 vs BIR2 separation window has been recorded for C[C@@H]1CN(CC(=O)N2CC(C)(C)c3[nH]c(=O)c(Cc4ccc(F)cc4)cc32)[C@@H](CN2CCO[C@H](C(=O)NCCCCCNC(=O)[C@@H]3CN(C[C@H]4CN[C@H](C)CN4CC(=O)N4CC(C)(C)c5[nH]c(=O)c(Cc6ccc(F)cc6)cc54)CCO3)C2)CN1 ?
+++ (10,000>FS>1,000)

Also C[C@@H]1CN(CC(=O)N2CC(C)(C)c3[nH]c(=O)c(Cc4ccc(F)cc4)cc32)[C@@H](CN2CCN(C(=O)/C=C/c3ccc(/C=C/C(=O)N4CCN(C[C@H]5CN[C@H](C)CN5CC(=O)N5CC(C)(C)c6[nH]c(=O)c(Cc7ccc(F)cc7)cc65)[C@H](C)C4)cc3)C[C@H]2C)CN1 ?
++ (1,000>FS>100)

Also C[C@@H]1CN(CC(=O)N2CC(C)(C)c3c2cc(Cc2ccc(F)cc2)c(=O)n3C)[C@@H](CN2CCO[C@H](COc3ccc(Cc4ccc(OC[C@@H]5CN(C[C@H]6CN[C@H](C)CN6CC(=O)N6CC(C)(C)c7c6cc(Cc6ccc(F)cc6)c(=O)n7C)CCO5)cc4)cc3)C2)CN1 ?
+++ (10,000>FS>1,000)

Also C[C@@H]1CN(CC(=O)N2CC(C)(C)c3[nH]c(=O)c(Oc4ccc(Br)cc4)cc32)[C@@H](CN2CCO[C@H](C(=O)NCc3ccc(CNC(=O)[C@@H]4CN(C[C@H]5CN[C@H](C)CN5CC(=O)N5CC(C)(C)c6[nH]c(=O)c(Oc7ccc(Br)cc7)cc65)CCO4)cc3)C2)CN1 ?
+++ (10,000>FS>1,000)

Also C[C@@H]1CN(CC(=O)N2CC(C)(C)c3[nH]c(=O)c(Cc4ccc(Cl)cc4C#N)cc32)[C@@H](CN2CCO[C@H](C(=O)NCc3ccc(CNC(=O)[C@@H]4CN(C[C@H]5CN[C@H](C)CN5CC(=O)N5CC(C)(C)c6[nH]c(=O)c(Cc7ccc(Cl)cc7C#N)cc65)CCO4)cc3)C2)CN1 ?
++ (1,000>FS>100)
